Provide the reported IC50 of each item.
- test.target: Human recombinant FAP (Homo sapiens)
- experiment: FRET-based FAP protease activity assay
- Format: biochemical
- Parameters: purchased R&D systems 3715-SE
- experimental.setup: pIC50 Category (Activity), FRET substrate, 37° C.
Numbered stars: 1 amine (or outer) side, 2 acyl side, 3 side chain; on linkers, the order of the positions; unused ones are H or OH. Bridge positions count the residues as written; N and C are the ends. Peptide text beside a SMILES is read from it. * marks the point of attachment. X39 = NCCOCCOCC(=O)NCCSCc1cc(C[*:1])cc(C[*:2])c1; Hexanoyl = CCCCCC(=O)*

{"molecule": "CCCCCS(=O)(=O)N[C@H]1CSCc2cc(CSCCNC(=O)CN3CCN(CC(=O)O)CCN(CC(=O)O)CCN(CC(=O)O)CC3)cc(c2)CSC[C@@H](C(=O)O)NC(=O)[C@H](Cc2ccccc2)NC(=O)[C@H](CCC(N)=O)NC(=O)[C@H]([C@@H](C)O)NC(=O)[C@@H]2CCCN2C(=O)[C@@H]2CCCN2C1=O [3BP-3690]", "observed.measurement": "< 10 nM"}

Kindly consider the entry below.
Query: Give me measured IC50, please, for this molecule: CCCCCC(=O)N[C@H]1CSCc2cc(CSCCNC(=O)COCCOCCN)cc(c2)CSC[C@@H](C(=O)N[C@@H](CC(=O)O)C(N)=O)NC(=O)[C@H](Cc2ccccc2)NC(=O)[C@H](CCC(N)=O)NC(=O)[C@H]([C@@H](C)O)NC(=O)[C@@H]2CCCN2C(=O)[C@@H]2CCCN2C1=O [3BP-4003] (Hexanoyl-CPPTQFCD-NH2; linker 1-7 via X39)
Reply: < 10 nM

###

Provide the reported IC50 of each item.
- test.target: Human recombinant FAP (Homo sapiens, UniProt Q12884)
- Sequence (Q12884 whole entry): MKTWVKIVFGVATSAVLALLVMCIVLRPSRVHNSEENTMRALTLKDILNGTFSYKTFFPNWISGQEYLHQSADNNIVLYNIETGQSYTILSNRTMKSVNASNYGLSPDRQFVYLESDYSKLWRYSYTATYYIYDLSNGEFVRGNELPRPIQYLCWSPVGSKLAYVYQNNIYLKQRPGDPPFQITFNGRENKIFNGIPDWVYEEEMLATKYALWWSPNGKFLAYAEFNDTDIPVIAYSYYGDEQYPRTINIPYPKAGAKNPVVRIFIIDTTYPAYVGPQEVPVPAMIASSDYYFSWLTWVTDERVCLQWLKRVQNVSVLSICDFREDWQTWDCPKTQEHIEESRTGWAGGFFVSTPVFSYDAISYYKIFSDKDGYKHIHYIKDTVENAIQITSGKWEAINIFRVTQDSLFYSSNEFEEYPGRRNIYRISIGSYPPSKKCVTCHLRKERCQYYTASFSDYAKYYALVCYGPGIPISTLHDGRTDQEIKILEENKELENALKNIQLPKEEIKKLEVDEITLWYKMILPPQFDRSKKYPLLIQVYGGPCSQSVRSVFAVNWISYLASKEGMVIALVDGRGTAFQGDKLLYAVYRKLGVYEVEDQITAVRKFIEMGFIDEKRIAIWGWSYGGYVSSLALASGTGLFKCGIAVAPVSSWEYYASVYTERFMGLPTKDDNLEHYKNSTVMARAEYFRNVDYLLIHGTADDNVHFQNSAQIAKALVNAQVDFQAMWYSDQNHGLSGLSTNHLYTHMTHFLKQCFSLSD
- experiment: FRET-based FAP protease activity assay
- Assay type: biochemical
- Design: purchased R&D systems 3715-SE
- experimental.setup: pIC50 Category (Activity), recombinant human FAP, FRET substrate, 37° C.
Numbered stars: 1 amine (or outer) side, 2 acyl side, 3 side chain; on linkers, the order of the positions; unused ones are H or OH. Bridge positions count the residues as written; N and C are the ends. Square brackets hold non-standard residues; d marks the D form. Peptide text beside a SMILES is read from it. * marks the point of attachment. DOTA = O=C(O)CN1CCN(CC(=O)O)CCN(CC(=O)*)CCN(CC(=O)O)CC1; mXylylene = c1cc(C[*:1])cc(C[*:2])c1; Pentanesulfonyl = CCCCCS(=O)(=O)*; Nle = CCCC[C@H](N)C(=O)O; Hexanoyl = CCCCCC(=O)*; βAla = NCCC(=O)O

Worked cases, IC50 given:
{"compound": "CSCC[C@H](NC(C)=O)C(=O)N[C@H]1CSCc2cccc(c2)CSC[C@@H](C(=O)N[C@@H](CC(=O)O)C(=O)N[C@@H](Cc2c[nH]cn2)C(=O)N[C@@H](Cc2ccccc2)C(=O)N[C@@H](CCCNC(=N)N)C(=O)N[C@@H](CC(=O)O)C(N)=O)NC(=O)[C@H](Cc2ccccc2)NC(=O)[C@H](CCC(=O)O)NC(=O)[C@@H]([C@H](C)O)NC(=O)[C@@H]2CCCN2C(=O)[C@@H]2CCCN2C1=O [3BP-3178] (Ac-MCPP[dT]EFCDHFRD-NH2; linker 2-8 via mXylylene)", "IC50": "10 to 79.4 nM"}
{"compound": "CSCC[C@H](NC(C)=O)C(=O)N[C@H]1CSCc2cccc(c2)CSC[C@@H](C(=O)N[C@@H](CC(=O)O)C(=O)N[C@@H](Cc2c[nH]cn2)C(=O)N[C@@H](Cc2ccccc2)C(=O)N[C@@H](CCCNC(=N)N)C(=O)N[C@@H](CC(=O)O)C(N)=O)NC(=O)[C@@H](Cc2ccccc2)NC(=O)[C@H](CCC(=O)O)NC(=O)[C@H]([C@@H](C)O)NC(=O)[C@@H]2CCCN2C(=O)[C@@H]2CCCN2C1=O [3BP-3180] (Ac-MCPPTE[dF]CDHFRD-NH2; linker 2-8 via mXylylene)", "IC50": "100 to 794 nM"}

// each compound listed below needs its IC50
1. CSCC[C@H](NC(C)=O)C(=O)N[C@H]1CSCc2cccc(c2)CSC[C@@H](C(=O)N[C@@H](CC(=O)O)C(=O)N[C@@H](Cc2c[nH]cn2)C(=O)N[C@@H](Cc2ccccc2)C(N)=O)NC(=O)[C@H](Cc2ccccc2)NC(=O)[C@H](CCC(=O)O)NC(=O)[C@H]([C@@H](C)O)NC(=O)[C@@H]2CCCN2C(=O)[C@@H]2CCCN2C1=O [3BP-3199] (Ac-MCPPTEFCDHF-NH2; linker 2-8 via mXylylene)
2. CSCC[C@H](NC(C)=O)C(=O)N[C@H]1CSCc2cccc(c2)CSC[C@@H](C(=O)N[C@@H](CC(=O)O)C(=O)N[C@@H](Cc2c[nH]cn2)C(=O)N[C@@H](Cc2ccccc2)C(=O)N[C@@H](CCCNC(=N)N)C(=O)N[C@@H](CC(=O)O)C(N)=O)NC(=O)[C@H](Cc2ccccc2)NC(=O)[C@H](CCC(=O)O)NC(=O)[C@H]([C@@H](C)O)NC(=O)[C@@H]2CCCN2C(=O)[C@@H]2CCCN2C1=O [3BP-2975] (Ac-MCPPTEFCDHFRD-NH2; linker 2-8 via mXylylene)
3. CCCCCC(=O)N[C@H]1CSCc2cccc(c2)CSC[C@@H](C(N)=O)NC(=O)[C@H](Cc2c[nH]c3ccccc23)NC(=O)[C@H](CCC(N)=O)NC(=O)[C@H]([C@@H](C)O)NC(=O)[C@@H]2CCCN2C(=O)[C@@H]2CCCN2C1=O [3BP-3408] (Hexanoyl-CPPTQWC-NH2; linker 1-7 via mXylylene)
4. CCCC[C@H](NC(=O)CN1CCN(CC(=O)O)CCN(CC(=O)O)CCN(CC(=O)O)CC1)C(=O)N[C@H]1CSCc2cccc(c2)CSC[C@@H](C(=O)N[C@@H](CC(=O)O)C(=O)N[C@@H](Cc2c[nH]cn2)C(=O)N[C@@H](Cc2ccccc2)C(=O)N[C@@H](CCCNC(=N)N)C(=O)N[C@@H](CC(=O)O)C(N)=O)NC(=O)[C@H](Cc2ccccc2)NC(=O)[C@H](CCC(=O)O)NC(=O)[C@H]([C@@H](C)O)NC(=O)[C@@H]2CCCN2C(=O)[C@@H]2CCCN2C1=O [3BP-3088] ({DOTA}-[Nle]CPPTEFCDHFRD-NH2; linker 2-8 via mXylylene)
5. CC(=O)N[C@H]1CSCc2cccc(c2)CSC[C@@H](C(=O)N[C@@H](CC(=O)O)C(=O)N[C@@H](Cc2c[nH]cn2)C(=O)N[C@@H](Cc2ccccc2)C(=O)N[C@@H](CCCNC(=N)N)C(=O)N[C@@H](CC(=O)O)C(N)=O)NC(=O)[C@H](Cc2ccccc2)NC(=O)[C@H](CCC(=O)O)NC(=O)[C@H]([C@@H](C)O)NC(=O)[C@@H]2CCCN2C(=O)[C@@H]2CCCN2C1=O [3BP-3202] (Ac-CPPTEFCDHFRD-NH2; linker 1-7 via mXylylene)
6. CCCCCS(=O)(=O)N[C@H]1CSCc2cccc(c2)CSC[C@@H](C(=O)N[C@@H](CC(=O)O)C(N)=O)NC(=O)[C@H](Cc2ccccc2)NC(=O)[C@H](CCC(N)=O)NC(=O)[C@H]([C@@H](C)O)NC(=O)[C@@H]2CCCN2C(=O)[C@@H]2CCCN2C1=O [3BP-3514] (Pentanesulfonyl-CPPTQFCD-NH2; linker 1-7 via mXylylene)
7. CCCCCC(=O)N[C@H]1CSCc2cccc(c2)CSC[C@@H](C(=O)NCCC(=O)O)NC(=O)[C@H](Cc2ccccc2)NC(=O)[C@H](CCC(=O)O)NC(=O)[C@H]([C@@H](C)O)NC(=O)[C@@H]2CCCN2C(=O)[C@@H]2CCCN2C1=O [3BP-3371] (Hexanoyl-CPPTEFC[βAla]-OH; linker 1-7 via mXylylene)

Reply:
1. 10 to 79.4 nM
2. < 10 nM
3. 10 to 79.4 nM
4. 100 to 794 nM
5. < 10 nM
6. < 10 nM
7. 10 to 79.4 nM

Query: Give me measured IC50, please, for this compound: CSCC[C@H](NC(C)=O)C(=O)N[C@H]1CSCc2cccc(c2)CSC[C@@H](C(=O)N[C@@H](CC(=O)O)C(=O)N[C@@H](Cc2c[nH]cn2)C(=O)N[C@@H](Cc2ccccc2)C(=O)N[C@@H](CCCNC(=N)N)C(=O)N[C@@H](CC(=O)O)C(N)=O)NC(=O)[C@H](Cc2ccccc2)NC(=O)[C@H](CCC(=O)O)NC(=O)[C@H]([C@@H](C)O)NC(=O)[C@@H]2CCCN2C(=O)[C@H]2CCCN2C1=O [3BP-3176] (Ac-MC[dP]PTEFCDHFRD-NH2; linker 2-8 via mXylylene)
Reply: 100 to 794 nM
